Recorded values, source the supplement of paper PMC10567573.

B1: VDR (parent)
chain: LIKFQVGLKKLNLHEEEHVLLMAI

variants of: B1; assay: protein stability index of a GFP-peptide fusion (GPS, HEK-293T) (PSI 1-6); higher = more stable; details: c terminus: a fixed tail appended;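 note: lentivirally expressed fusions sorted by FACS into six bins by GFP to DsRed ratio, PSI derived from sequencing read proportions per bin multiplied by bin number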
Listed here are variants together with their documented protein stability index.

[
  {
    "monomer-sequence": "LIKFQVGLKKLNPHEEEHVLLMAI [L13P]",
    "value-observed": 2.73
  },
  {
    "monomer-sequence": "LIKFQVGLKKLNLHEEEHVLLMAD [I24D]",
    "value-observed": 1.87
  },
  {
    "monomer-sequence": "LIGFQVGLKKLNLHEEEHVLLMAI [K3G]",
    "value-observed": 3.98
  }
]

// lookup protein stability index for DIKFQVGLKKLNLHEEEHVLLMAI [L1D]
2.9

// lookup protein stability index for LFKFQVGLKKLNLHEEEHVLLMAI [I2F]
2.27

// lookup protein stability index for LIKFQVGLKPLNLHEEEHVLLMAI [K10P]
3.19

// lookup protein stability index for LIKFQVMLKKLNLHEEEHVLLMAI [G7M]
3.9

// lookup protein stability index for LIKFQVGLKKLNLHEEEHVQLMAI [L20Q]
1.81

// lookup protein stability index for LIKFQVGLKKLNLHEEEHVTLMAI [L20T]
2.4

// lookup protein stability index for LIKDQVGLKKLNLHEEEHVLLMAI [F4D]
3.17

// lookup protein stability index for LIKFQVGLSKLNLHEEEHVLLMAI [K9S]
3.17
